Reference for the values: patent US12187723B2

Reported pIC50 values for a set of compounds
Target: human TLR9 (Homo sapiens)
Sequence (Q9NR96 26-1032): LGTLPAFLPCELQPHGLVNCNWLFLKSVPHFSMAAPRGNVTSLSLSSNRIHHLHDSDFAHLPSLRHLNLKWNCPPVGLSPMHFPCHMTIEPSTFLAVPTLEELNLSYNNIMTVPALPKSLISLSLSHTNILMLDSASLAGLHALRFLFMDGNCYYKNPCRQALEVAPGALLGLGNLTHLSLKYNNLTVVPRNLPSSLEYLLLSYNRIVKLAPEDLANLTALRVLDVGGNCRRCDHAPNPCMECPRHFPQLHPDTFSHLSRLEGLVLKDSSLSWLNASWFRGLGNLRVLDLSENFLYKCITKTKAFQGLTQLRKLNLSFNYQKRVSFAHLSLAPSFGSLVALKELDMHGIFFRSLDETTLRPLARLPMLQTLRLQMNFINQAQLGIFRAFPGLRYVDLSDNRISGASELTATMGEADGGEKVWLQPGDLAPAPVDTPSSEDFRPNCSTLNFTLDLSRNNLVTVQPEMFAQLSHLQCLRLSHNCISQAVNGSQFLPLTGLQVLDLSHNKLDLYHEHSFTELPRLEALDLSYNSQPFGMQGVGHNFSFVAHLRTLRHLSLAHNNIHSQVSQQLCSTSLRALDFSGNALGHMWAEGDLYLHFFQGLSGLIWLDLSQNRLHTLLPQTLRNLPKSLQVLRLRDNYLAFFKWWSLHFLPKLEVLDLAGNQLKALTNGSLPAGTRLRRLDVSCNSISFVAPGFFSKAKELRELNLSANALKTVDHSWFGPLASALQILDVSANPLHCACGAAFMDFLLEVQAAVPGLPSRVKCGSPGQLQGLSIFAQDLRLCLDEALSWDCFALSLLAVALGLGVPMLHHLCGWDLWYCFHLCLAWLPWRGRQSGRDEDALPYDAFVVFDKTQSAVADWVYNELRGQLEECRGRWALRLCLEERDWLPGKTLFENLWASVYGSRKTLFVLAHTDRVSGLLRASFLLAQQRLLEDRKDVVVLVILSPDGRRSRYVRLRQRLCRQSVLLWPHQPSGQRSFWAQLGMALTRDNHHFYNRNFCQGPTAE
Experiment: TLR9 inhibition reporter assay (HEK-Blue SEAP)
Settings: HEK-Blue cells overexpressing human TLR9, ODN2006 5 nM, 22 hour incubation
Remember the convention: pIC50 equals -log10 of concentration in molar.

Cc1cc2c(cc1-c1cc(C)c3ncnn3c1)[nH]c(=O)n2[C@@H]1CCCN(CCCC(F)(F)F)C1
4.98
Cc1cc2c(cc1-c1cc(C)c3ncnn3c1)[nH]c(=O)n2[C@@H]1CCCN(CC2CCCC2)C1
5.44
Cc1c(-c2cc3[nH]c(=O)n(C4CCC(N5CCCOCC5)CC4)c3cc2C(C)C)cn2ncnc2c1C (centres unmarked) [Example 272]
5.17
Cc1c(-c2cc3[nH]c(=O)n([C@@H]4CCCN(CC5CCOCC5)C4)c3cc2C(C)C)cn2ncnc2c1C
4.80
CCN1CCC[C@@H](n2c(=O)[nH]c3cc(-c4cc(OC)c5ncnn5c4)c(C(F)(F)F)cc32)C1
5.11
Cc1c(-c2cc3[nH]c(=O)n(C4CCC(N5CCC6(CC5)COC6)CC4)c3cc2C(C)C)cn2ncnc2c1C (single isomer, unassigned) [Example 282]
4.84

Here is the next item to consider.
Enquiry: I'd like to know its pIC50. The compound in question is COc1cc(-c2cc3[nH]c(=O)n([C@H]4CC[C@@H](NC5COC5)CC4)c3cc2C)cn2ncnc12
Return: 5.12
